- Tested on: Saccharomyces cerevisiae
- Measurement description: protein stability index of tFT-peptide fusion (C-terminal peptide) (PSI (0-1 scale)); higher = more stable (slower turnover)
- Condition set: genetic background: das1 deletion; temperature: 30 C
Below, each of the sequences is paired with its reported protein stability index value.
Enter a number only.

In the examples that follow, each entry is paired with its recorded protein stability index.
>>> numeric_value("PKSFVPRDIEKK [YGR265W C-terminal 12 aa]")
0.695
>>> numeric_value("FLDDVLNGREII [YNL058C C-terminal 12 aa]")
0.708
>>> numeric_value("KKRRIHPTPVDL [CAC2 C-terminal 12 aa]")
0.697
>>> numeric_value("GIDLNSIKWSGH [NFS1 C-terminal 12 aa]")
0.718
>>> numeric_value("KLGSYLRDYLRK [GLO3 C-terminal 12 aa]")
0.707

Requested field: protein stability index. Item: MSKLGLIPKDFQ [HIS4 C-terminal 12 aa]
0.693

Requested field: protein stability index. Item: QIITISNANSHA [MBP1 C-terminal 12 aa]
0.705

Requested field: protein stability index. Item: FPVKSSPNAHTA [YLR334C C-terminal 12 aa]
0.707

Requested field: protein stability index. Item: EILSMPDLSKYQ [SDH5 C-terminal 12 aa]
0.692

Requested field: protein stability index. Item: KITEKWTHKDFK [NOP53 C-terminal 12 aa]
0.688
